test system: PC15; assay: qHTS profiling for inhibitors of Plasmodium falciparum proliferation (AID 504749); further: nearly all actives have a fitted effect of over 60% in size; details: P. falciparum in erythrocytes, SYBR Green DNA, 72 h; series mostly up to 28.7 µM
Results filed as inconclusive are left out. Active and inactive are the calls of the source. The call rests on the fitted dose curve; in most records, active means well fitted inhibition curve with a large enough effect; inconclusive means small, poorly fitted or top-dose-only effect; inactive means flat fitted curve, though single readings scatter.
quantity-name: outcome

Known results for compounds:
Cc1ccc(S(=O)(=O)NC(=O)NC2CCCCCCC2)cc1 | inactive
C=CCSCC1Nc2cc(Cl)c(S(N)(=O)=O)cc2S(=O)(=O)N1 (stereo not drawn) | inactive
O=C(CN1CCNCC1)NC1CCCCC1 | inactive
CCN1CC(CCN2CCOCC2)C(c2ccccc2)(c2ccccc2)C1=O (stereo not drawn) | inactive

We now examine a further compound.
Field request: outcome | item: Cc1c(N(C)C)c(=O)n(-c2ccccc2)n1C
inactive
